biological target: L-lactate dehydrogenase A chain (Homo sapiens); assay: Inhibition of human liver purified lactate dehydrogenase-A using pyruvate as substrate assessed as NADH oxidation for 3 mins by fluorimetric method
Binarize IC50 at 40 µM; below is condition met, at or above is condition not met.

>  <smiles-structure>
O=C(O)c1cccc(-c2ccc(/C=N/NC(=O)c3cccc(CO)c3)o2)c1

>  <assay-system>
L-lactate dehydrogenase A chain (Homo sapiens)

>  <category>
condition not met

$$$$
>  <smiles-structure>
COc1cc(C(=O)N/N=C/c2ccc(-c3ccc(C(=O)O)cc3)o2)cc(OC)c1OC

>  <assay-system>
L-lactate dehydrogenase A chain (Homo sapiens)

>  <category>
condition not met

$$$$
>  <smiles-structure>
COc1cc(C(=O)N/N=C/c2cccc(-c3cccc(C(=O)O)c3)n2)cc(OC)c1OC

>  <assay-system>
L-lactate dehydrogenase A chain (Homo sapiens)

>  <category>
condition not met

$$$$
>  <smiles-structure>
N#CCC(=O)N/N=C/c1ccc(-c2cccc(C(=O)O)c2)o1

>  <assay-system>
L-lactate dehydrogenase A chain (Homo sapiens)

>  <category>
condition not met

$$$$
>  <smiles-structure>
N#CCC(=O)N/N=C/c1cccc(-c2ccc(C(=O)O)cc2)n1

>  <assay-system>
L-lactate dehydrogenase A chain (Homo sapiens)

>  <category>
condition not met

$$$$
>  <smiles-structure>
COc1cc(C(=O)N/N=C/c2ccc(-c3cccc(C(=O)O)c3)o2)cc(OC)c1OC

>  <assay-system>
L-lactate dehydrogenase A chain (Homo sapiens)

>  <category>
condition met

$$$$
>  <smiles-structure>
COc1cc(C(=O)N/N=C/c2cc(-c3cccc(C(=O)O)c3)co2)cc(OC)c1OC

>  <assay-system>
L-lactate dehydrogenase A chain (Homo sapiens)

>  <category>
condition met

$$$$
>  <smiles-structure>
N#CCC(=O)N/N=C/c1ccc(-c2ccc(C(=O)O)cc2)o1

>  <assay-system>
L-lactate dehydrogenase A chain (Homo sapiens)

>  <category>
condition met

$$$$
>  <smiles-structure>
O=C(O)c1cccc(-c2ccc(/C=N/NC(=O)c3cccnc3)o2)c1

>  <assay-system>
L-lactate dehydrogenase A chain (Homo sapiens)

>  <category>
condition not met

$$$$
>  <smiles-structure>
O=C(O)c1cccc(-c2ccc(/C=N/NC(=O)c3ccc4[nH]ccc4c3)o2)c1

>  <assay-system>
L-lactate dehydrogenase A chain (Homo sapiens)

>  <category>
condition met

$$$$
>  <smiles-structure>
COC(=O)c1cccc(-c2ccc(/C=N/NC(=O)c3cccnc3)o2)c1

>  <assay-system>
L-lactate dehydrogenase A chain (Homo sapiens)

>  <category>
condition not met

$$$$

Where these numbers come from: ChEMBL document CHEMBL3608299
